- TARGET_OR_TEST_SYSTEM: MARV Musoke GPe[change] (Marburg virus, Musoke strain, UniProt P35253 19-636)
- ASSAY_PROTOCOL: cross reactivity with GPeΔmuc, summary table
METRIC_NAME: binding result

[[record]]
binder = "CAN30G3 (antibody, V domains shown) VH: QVQLKESGPGLVAPSQSLSITCTVSGFSLTDYGITWIRQPPGKGLEWLGVIWGGGSAYYNLVLKSRLSISKDNSKSQVFLKMNSLQTDDTAMYYCAKHRTLITTAMDYWGQGISVTVSS VL: DVLMTQTPLSLPVSLGDQASISCRSSQNIVHSNGNTYLEWYLQKSGQSPKLLIYKVSNRFSGVPDRFSGSGSGTDFTLKISRVEAEDLGVYYCFQGSHFPWTFGGGTKLEIK"
val = "binds"

[[record]]
binder = "CAN30G5 (antibody, V domains shown) VH: EVQLVESGGGLVQPKGSLKLSCAASGFAFNSYAMHWVCQAPGKGLEWVARIRIKSGNYATSYAGSVTDRFTVSRDDSQNLFYLQMNNLKTEDTAMYYCVREWEGAMDYWGQGTSVTVSS VL: DIVLTQSPLSLPVSLGDQASISCRSSQSLVHSNGNTYLHWYLQKPGQSPNLLIYKVSNRFSGVPDRFSGSGSGTDFTLKISRVEAEDLGVYFCSQSTHVPWTFGGGTKLEIK"
val = "binds"

